# Test system: HEK-293T
# test-details: Multiplex assay against HEK293T
# Assay type: toxicity, cell-based
# test-conditions: human, 12 h, 10 µM, compound concentration 10 uM, replicate 1
Each record is given Yes if its reported Population Apoptotic (%) is strictly below 50%. Records at or above 50% are given No.

compound	target-system	category-label
CCCn1c(=O)c2[nH]c(-c3cnn(Cc4cccc(C(F)(F)F)c4)c3)nc2n(CC)c1=O	HEK-293T	Yes
Cl.O=c1c2cccn2c2ccccc2n1CCCN1CCC(c2ccc(Cl)cc2)CC1	HEK-293T	No
CCOc1cc2ncc(C#N)c(Nc3ccc(OCc4ccccn4)c(Cl)c3)c2cc1NC(=O)/C=C/CN(C)C	HEK-293T	Yes
NC(=O)c1cccc(-c2cc(Nc3ccc(OC(F)(F)F)cc3)ncn2)c1	HEK-293T	Yes
O=C(Nc1ccc(-c2ccnc(Nc3ccc(N4CCOCC4)cc3)n2)cc1)[C@@H]1CCCN1	HEK-293T	No
Cl.Oc1ccc2c3c1O[C@H]1c4[nH]c5c(c4C[C@@]4(O)[C@@H](C2)N(CC2CC2)CC[C@]314)C[C@@]1(O)[C@H]2Cc3ccc(O)c4c3[C@@]1(CCN2CC1CC1)[C@H]5O4	HEK-293T	Yes
CN1C2CCC1CC(OC(c1ccc(F)cc1)c1ccc(F)cc1)C2.Cl (stereo not drawn)	HEK-293T	No
C=CCn1c(=O)c2cnc(Nc3ccc(N4CCN(C)CC4)cc3)nc2n1-c1cccc(C(C)(C)O)n1	HEK-293T	Yes

###

Consider the following compounds and their measured Population Pyknosed Nuclei (%) readings.
# Test system: U2OS
# test-details: Multiplex assay against U2OS
# Type: toxicity, cell-based
# test-conditions: human, 24 h, 10 µM, compound concentration 10 uM, replicate 2
property-name: Population Pyknosed Nuclei (%)

>>> df
                                   compound  target_system                   property_name  measured_result
0  CNC(=O)c1ccc(Nc2nc(OC3CCCC3)c3c(-c4ccc5nc(C)oc5c4)c[nH]c3n2)c(OC)c1           U2OS  Population Pyknosed Nuclei (%)                8
1  CN1CCC(=C2c3ccccc3CC(=O)c3sccc32)CC1.O=C(O)/C=C/C(=O)O [KETOTIFEN FUMARATE]           U2OS  Population Pyknosed Nuclei (%)               27
2  CN1C2CCC1CC(OC(c1ccc(F)cc1)c1ccc(F)cc1)C2.Cl (centres undefined)           U2OS  Population Pyknosed Nuclei (%)               19
3  CCn1cc(-c2ccnc3[nH]c(-c4cccc(CN(C)C)c4)cc23)c(-c2ccc(NC(=O)N(C)C)cc2)n1           U2OS  Population Pyknosed Nuclei (%)               45

###

# Test system: Fibroblast
# test-details: Multiplex assay against human fibroblast
# Assay type: toxicity, cell-based
# test-conditions: 12 h, 10 µM, compound concentration 10 uM, replicate 1
Use 20% as the dividing line for Population Pyknosed Nuclei (%), with the line itself on the 1 (yes) side and lower values as 0 (no).

compound	target-system	category-label
CCN1CCN(Cc2ccc(Nc3ncc(F)c(-c4cc(F)c5nc(C)n(C(C)C)c5c4)n3)nc2)CC1.CS(=O)(=O)O	Fibroblast	1 (yes)
Cl.Oc1ccc2c3c1O[C@H]1c4[nH]c5c(c4C[C@@]4(O)[C@@H](C2)N(CC2CC2)CC[C@]314)C[C@@]1(O)[C@H]2Cc3ccc(O)c4c3[C@@]1(CCN2CC1CC1)[C@H]5O4	Fibroblast	1 (yes)
CN1CCN(C(=O)C(C)(C)c2ccc(C(=O)Nc3cn4cc(-c5cc(C(C)(C)C)cc(C(C)(C)C)c5)ccc4n3)cc2)CC1	Fibroblast	0 (no)
COC(=N)c1nc2ccc3ncnc(Nc4ccc(OC)cc4F)c3c2s1	Fibroblast	0 (no)
CCn1cc(-c2ccnc3[nH]c(-c4cccc(CN(C)C)c4)cc23)c(-c2ccc(NC(=O)N(C)C)cc2)n1	Fibroblast	0 (no)
CNc1cc(Oc2cc(C(=O)Nc3cc(N4CCN(C)CC4)cc(C(F)(F)F)c3)ccc2C)ncn1	Fibroblast	1 (yes)
COc1ccc(-c2ccc3c(N4CCOCC4)nc(N4C[C@@H](C)O[C@@H](C)C4)nc3n2)cc1CO	Fibroblast	0 (no)
C=CCn1c(=O)c2cnc(Nc3ccc(N4CCN(C)CC4)cc3)nc2n1-c1cccc(C(C)(C)O)n1	Fibroblast	1 (yes)
CCOc1cc(C(=O)N2CCC(N3CCN(C)CC3)CC2)ccc1Nc1ncc2c(n1)N(C1CCCC1)c1ccccc1C(=O)N2C	Fibroblast	1 (yes)
CN(C)C(=O)C(CCN1CCC(O)(c2ccc(Cl)cc2)CC1)(c1ccccc1)c1ccccc1.Cl [LOPERAMIDE HYDROCHLORIDE]	Fibroblast	1 (yes)
O=C1NC(=O)C(c2cnc3ccccn23)=C1c1cn2c3c(cc(F)cc13)CN(C(=O)N1CCCCC1)CC2	Fibroblast	1 (yes)
CCOc1cc2ncc(C#N)c(Nc3ccc(OCc4ccccn4)c(Cl)c3)c2cc1NC(=O)/C=C/CN(C)C	Fibroblast	1 (yes)
O=C(Nc1ccc(Cl)cc1)Nc1cccc(-c2cccc(N3CCCC3)n2)c1	Fibroblast	1 (yes)
Cc1cn(-c2cc(NC(=O)c3ccc(C)c(Nc4nccc(-c5cccnc5)n4)c3)cc(C(F)(F)F)c2)cn1	Fibroblast	0 (no)
O=C(Cc1ccc(-c2ccc(OCCN3CCOCC3)cc2)cn1)NCc1ccccc1	Fibroblast	1 (yes)
CCc1cccc(CC)c1NC(=O)c1nn(C)c2c1CCc1cnc(Nc3ccc(C(=O)NC4CCN(C)CC4)cc3OC(F)(F)F)nc1-2	Fibroblast	1 (yes)
Cc1ccc2nc(NCCN)c3ncc(C)n3c2c1.O=C(O)C(F)(F)F.O=C(O)C(F)(F)F	Fibroblast	0 (no)
C=C1/C(=C\C=C2/CCC[C@]3(C)[C@@H]([C@H](C)/C=C/[C@H](C)C(C)C)CC[C@@H]23)C[C@@H](O)C[C@@H]1O	Fibroblast	0 (no)
Cc1cc(C)c(S(=O)(=O)N(Cc2ccc(-c3cccc(S(C)(=O)=O)c3)cc2)Cc2ccc(C(F)(F)F)o2)c(C)c1	Fibroblast	1 (yes)
O=C1N/C(=N/c2ccccc2F)S/C1=C\c1ccc(C(=O)O)cc1	Fibroblast	0 (no)
Cn1nc(C(F)(F)F)cc1-c1cnc(N2CCc3cc(S(=O)(=O)Nc4c(F)cc(Cl)cc4F)cc(N4CCCC4=O)c32)nc1	Fibroblast	0 (no)
O=C(Nc1cccnn1)N1CCC(=Cc2cccc(Oc3ccc(C(F)(F)F)cn3)c2)CC1	Fibroblast	0 (no)
Cl.O=c1c2cccn2c2ccccc2n1CCCN1CCC(c2ccc(Cl)cc2)CC1	Fibroblast	1 (yes)
CN1CCC(=C2c3ccccc3CC(=O)c3sccc32)CC1.O=C(O)/C=C/C(=O)O [KETOTIFEN FUMARATE]	Fibroblast	1 (yes)
COc1ccc(S(=O)(=O)N(CCO)c2ccccc2CN(C)C/C=C/c2ccc(Cl)cc2)cc1.O=P(O)(O)O	Fibroblast	0 (no)
NC(=O)c1cccc(-c2cc(Nc3ccc(OC(F)(F)F)cc3)ncn2)c1	Fibroblast	0 (no)
S=C(NCCCc1c[nH]cn1)NCCCN(Cc1ccc(Cl)c(Cl)c1)c1ccc(Br)cn1	Fibroblast	1 (yes)
